test system: Escherichia coli TOP10; test: shrunken log2 fold change of peptide-encoding DNA abundance (4.5 h post-induction vs induction); higher = less antimicrobial activity (less host growth inhibition); details: time post-induction: 4.5 h; library: site-saturation at positions 5, 18, 19, 20;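 also: peptides expressed intracellularly from a pBAD plasmid library in pooled LB shake-flask culture, induced with 0.3% L-arabinose, DNA abundance read by NGS, three biological replicates, DESeq2 with apeglm shrinkage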
Entries and their shrunken log2 fold change
readout_name: shrunken log2 fold change

> print(dat)
             input.sequence               readout.name  measured
 1  RRIRTRPPRLPRPRPRPTSRPRP  shrunken log2 fold change     0.141
 2  RRIRSRPPRLPRPRPRPKWIPRP  shrunken log2 fold change    -0.553
 3  RRIRDRPPRLPRPRPRPADHPRP  shrunken log2 fold change   -0.0509
 4  RRIRCRPPRLPRPRPRPYCIPRP  shrunken log2 fold change    -0.565
 5  RRIRTRPPRLPRPRPRPLRRPRP  shrunken log2 fold change     0.323
 6  RRIRRRPPRLPRPRPRPWTFPRP  shrunken log2 fold change    -0.103
 7  RRIRERPPRLPRPRPRPIRAPRP  shrunken log2 fold change    0.0262
 8  RRIRLRPPRLPRPRPRPSACPRP  shrunken log2 fold change    -0.484
 9  RRIRQRPPRLPRPRPRPETAPRP  shrunken log2 fold change     0.159
10  RRIRNRPPRLPRPRPRPGSEPRP  shrunken log2 fold change     -0.24
11  RRIRCRPPRLPRPRPRPCRDPRP  shrunken log2 fold change    -0.142
12  RRIRHRPPRLPRPRPRPQQIPRP  shrunken log2 fold change   -0.0193
13  RRIRDRPPRLPRPRPRPSIFPRP  shrunken log2 fold change    -0.049
14  RRIRLRPPRLPRPRPRPEGWPRP  shrunken log2 fold change     0.862
15  RRIRYRPPRLPRPRPRPKSEPRP  shrunken log2 fold change   -0.0489
16  RRIRARPPRLPRPRPRPVMTPRP  shrunken log2 fold change  -0.00766
17  RRIRNRPPRLPRPRPRPIKLPRP  shrunken log2 fold change   -0.0869
18  RRIRLRPPRLPRPRPRPTVMPRP  shrunken log2 fold change     0.105
19  RRIRRRPPRLPRPRPRPPKYPRP  shrunken log2 fold change     -0.14
20  RRIRDRPPRLPRPRPRPIGSPRP  shrunken log2 fold change    -0.693
21  RRIRIRPPRLPRPRPRPFAIPRP  shrunken log2 fold change    -0.886
22  RRIRYRPPRLPRPRPRPTVGPRP  shrunken log2 fold change    0.0163
23  RRIRERPPRLPRPRPRPRLPPRP  shrunken log2 fold change      0.35
24  RRIRMRPPRLPRPRPRPMLGPRP  shrunken log2 fold change     0.141
25  RRIRKRPPRLPRPRPRPEGQPRP  shrunken log2 fold change     0.107
26  RRIRFRPPRLPRPRPRPNFDPRP  shrunken log2 fold change    -0.181
27  RRIRLRPPRLPRPRPRPSIMPRP  shrunken log2 fold change    -0.319
28  RRIRTRPPRLPRPRPRPPAWPRP  shrunken log2 fold change     0.663
29  RRIRMRPPRLPRPRPRPWWDPRP  shrunken log2 fold change     0.142
30  RRIRQRPPRLPRPRPRPWWSPRP  shrunken log2 fold change    0.0234
31  RRIRWRPPRLPRPRPRPLWYPRP  shrunken log2 fold change    -0.225
32  RRIRDRPPRLPRPRPRPDEYPRP  shrunken log2 fold change     0.436
33  RRIRARPPRLPRPRPRPWYDPRP  shrunken log2 fold change     -0.32
34  RRIRVRPPRLPRPRPRPAFMPRP  shrunken log2 fold change    -0.352
35  RRIRIRPPRLPRPRPRPPSKPRP  shrunken log2 fold change     0.147
36  RRIRSRPPRLPRPRPRPSQDPRP  shrunken log2 fold change    -0.296
37  RRIRCRPPRLPRPRPRPSTIPRP  shrunken log2 fold change     0.255
38  RRIRYRPPRLPRPRPRPECWPRP  shrunken log2 fold change     0.192
39  RRIRMRPPRLPRPRPRPTFYPRP  shrunken log2 fold change    -0.157
40  RRIRHRPPRLPRPRPRPWVIPRP  shrunken log2 fold change   0.00302
41  RRIRTRPPRLPRPRPRPVQCPRP  shrunken log2 fold change   0.00249
42  RRIRERPPRLPRPRPRPEFRPRP  shrunken log2 fold change    -0.274
43  RRIRNRPPRLPRPRPRPPWPPRP  shrunken log2 fold change     0.387
44  RRIRWRPPRLPRPRPRPFQLPRP  shrunken log2 fold change    -0.316
45  RRIRGRPPRLPRPRPRPCVSPRP  shrunken log2 fold change     0.265
46  RRIRLRPPRLPRPRPRPCIPPRP  shrunken log2 fold change    -0.194
47  RRIRTRPPRLPRPRPRPTRVPRP  shrunken log2 fold change     0.214
48  RRIRLRPPRLPRPRPRPTYEPRP  shrunken log2 fold change    -0.308
49  RRIRYRPPRLPRPRPRPFDSPRP  shrunken log2 fold change   -0.0136
50  RRIRGRPPRLPRPRPRPIFEPRP  shrunken log2 fold change     0.357
51  RRIRFRPPRLPRPRPRPESLPRP  shrunken log2 fold change    0.0896
52  RRIRNRPPRLPRPRPRPGWNPRP  shrunken log2 fold change     0.324
53  RRIRIRPPRLPRPRPRPTHRPRP  shrunken log2 fold change    -0.322
54  RRIRERPPRLPRPRPRPRHVPRP  shrunken log2 fold change    0.0784
55  RRIRFRPPRLPRPRPRPSAIPRP  shrunken log2 fold change    -0.304
56  RRIRKRPPRLPRPRPRPVIDPRP  shrunken log2 fold change      1.29
57  RRIRMRPPRLPRPRPRPRCVPRP  shrunken log2 fold change     0.581
58  RRIRGRPPRLPRPRPRPCWHPRP  shrunken log2 fold change     0.357
59  RRIRGRPPRLPRPRPRPRLKPRP  shrunken log2 fold change     0.777
60  RRIRSRPPRLPRPRPRPTCEPRP  shrunken log2 fold change     0.228
61  RRIRRRPPRLPRPRPRPWRTPRP  shrunken log2 fold change   -0.0112
62  RRIRERPPRLPRPRPRPIDQPRP  shrunken log2 fold change   0.00338
63  RRIRLRPPRLPRPRPRPEYPPRP  shrunken log2 fold change    -0.336
